Numbers sourced from patent US8846704B2.

target: Flt 4(h) (Homo sapiens); construct: purchased Upstate Biotechnology (Dundee, UK), KinaseProfiler service; assay: Upstate KinaseProfiler enzyme assay, Flt 4; assay type: biochemical; conditions: 500 nM compound; read-out: Percent inhibition at 500 nM Flt 4(h)
Sequence (P35916 25-1363): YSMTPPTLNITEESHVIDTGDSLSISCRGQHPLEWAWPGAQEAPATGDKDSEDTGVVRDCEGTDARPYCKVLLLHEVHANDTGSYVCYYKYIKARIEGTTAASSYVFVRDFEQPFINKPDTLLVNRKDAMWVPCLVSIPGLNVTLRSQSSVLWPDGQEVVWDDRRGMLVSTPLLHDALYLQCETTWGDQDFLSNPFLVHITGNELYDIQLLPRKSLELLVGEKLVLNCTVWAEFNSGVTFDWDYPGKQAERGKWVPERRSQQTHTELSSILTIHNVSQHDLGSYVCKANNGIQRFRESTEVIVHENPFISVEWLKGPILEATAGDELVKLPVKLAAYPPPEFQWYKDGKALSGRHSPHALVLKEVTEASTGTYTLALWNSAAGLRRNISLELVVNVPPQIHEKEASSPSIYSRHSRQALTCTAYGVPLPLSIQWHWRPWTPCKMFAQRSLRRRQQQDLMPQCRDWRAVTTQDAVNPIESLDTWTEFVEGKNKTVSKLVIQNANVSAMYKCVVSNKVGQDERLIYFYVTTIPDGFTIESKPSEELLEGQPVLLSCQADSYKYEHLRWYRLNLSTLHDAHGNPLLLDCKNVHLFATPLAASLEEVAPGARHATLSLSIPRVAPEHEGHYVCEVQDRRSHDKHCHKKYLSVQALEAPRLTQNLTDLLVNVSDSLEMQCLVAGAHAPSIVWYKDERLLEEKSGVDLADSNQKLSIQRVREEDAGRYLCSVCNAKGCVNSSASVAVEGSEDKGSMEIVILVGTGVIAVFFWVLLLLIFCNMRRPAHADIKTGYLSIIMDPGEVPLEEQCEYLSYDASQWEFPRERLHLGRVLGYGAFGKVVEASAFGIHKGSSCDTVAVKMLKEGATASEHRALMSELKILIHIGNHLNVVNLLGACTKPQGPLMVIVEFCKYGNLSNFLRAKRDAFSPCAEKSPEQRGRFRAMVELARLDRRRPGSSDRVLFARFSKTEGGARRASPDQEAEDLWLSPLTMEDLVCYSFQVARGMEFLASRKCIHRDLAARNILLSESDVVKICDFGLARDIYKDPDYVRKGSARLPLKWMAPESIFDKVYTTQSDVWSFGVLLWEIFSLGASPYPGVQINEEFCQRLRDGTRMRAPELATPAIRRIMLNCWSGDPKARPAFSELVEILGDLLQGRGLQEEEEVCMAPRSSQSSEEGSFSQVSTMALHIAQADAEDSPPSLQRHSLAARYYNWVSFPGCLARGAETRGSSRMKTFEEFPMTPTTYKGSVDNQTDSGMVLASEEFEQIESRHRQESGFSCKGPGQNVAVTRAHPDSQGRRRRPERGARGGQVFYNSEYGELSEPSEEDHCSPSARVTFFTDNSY
TEST_READOUT: inhibition at 0.5 µM (%)
Output spec: scalar in %, unitless text.

MOLECULE | inhibition at 0.5 µM [%]
Cc1cnc(Nc2ccc(N3CCOCC3)cc2)nc1Sc1ccc(N2C(=O)CSCC2=O)cc1 [Compound 231] | 100
C=CC(=O)Nc1ccc(Sc2nc(Nc3ccc(NS(C)(=O)=O)cc3)ncc2C)cc1 [Compound 285] | 98
C=CC(=O)N1CCc2cc(Sc3nc(Nc4ccc(N5CCOCC5)cc4)ncc3C)ccc21 [Compound 170] | 99
C=CC(=O)Nc1ccc(Sc2nc(Nc3ccc(OC)c(NS(C)(=O)=O)c3)ncc2C)cc1 [Compound 293] | 100
C=CC(=O)Nc1ccc(Sc2nc(Nc3ccc(CNS(C)(=O)=O)cc3)ncc2C)cc1 [Compound 294] | 100
C=CC(=O)Nc1ccc(Sc2nc(Nc3ccc(N4CCN(C)CC4)cc3)ncc2C)cc1 [Compound 239] | 100
C=CC(=O)Nc1ccc(Sc2nc(Nc3ccc(OCCN4CCOCC4)cc3)ncc2C)cc1 [Compound 290] | 100

For reference, reported inhibition at 0.5 µM for C=CC(=O)Nc1ccc(Sc2ccnc(Nc3ccc(N4CCN(C)CC4)cc3)n2)cc1 [Compound 238] stands at 99

---

UniProt:O60674: reported pIC50 for various molecules.
Sequence (O60674 849-1124 limits assumed): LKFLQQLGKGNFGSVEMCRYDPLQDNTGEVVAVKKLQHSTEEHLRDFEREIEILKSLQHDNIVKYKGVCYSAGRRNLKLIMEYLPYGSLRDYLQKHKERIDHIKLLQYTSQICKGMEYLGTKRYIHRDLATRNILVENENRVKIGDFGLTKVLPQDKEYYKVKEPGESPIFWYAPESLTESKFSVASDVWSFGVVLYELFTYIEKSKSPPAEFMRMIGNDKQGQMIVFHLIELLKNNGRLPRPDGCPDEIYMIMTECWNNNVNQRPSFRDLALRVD
pIC50: −log10 of the molar value.

MOLECULE | TEST_SYSTEM | TEST_READOUT | VALUE_REPORTED
C=CC(=O)Nc1ccc(Sc2nc(Nc3cccc(OC(F)(F)F)c3)ncc2C)cc1 [Compound 289] | UniProt:O60674 | pIC50 | < 6.00
c1cc(Sc2ccc(Cn3cncn3)cc2)nc(Nc2ccc(N3CCOCC3)cc2)n1 [Compound 204] | UniProt:O60674 | pIC50 | > 6.00
C=CC(=O)Nc1ccc(Sc2nc(Nc3ccc(C4CCN(C)CC4)cc3)ncc2C)cc1 [Compound 246] | UniProt:O60674 | pIC50 | < 6.00

Kindly note: UniProt:O60674, CC(=O)Nc1ccc(Sc2ccnc(Nc3ccc(N4CCC(N5CCCC5)CC4)cc3)n2)cc1 [Compound 86] , pIC50 value reported: < 6.00

---

inhibition at 0.5 µM by entry:
target: BTK(h) (Homo sapiens); construct: purchased Upstate Biotechnology (Dundee, UK), KinaseProfiler service; experiment: Upstate KinaseProfiler enzyme assay, BTK; assay type: biochemical; settings: 500 nM compound; read-out: Percent inhibition at 500 nM BTK(h)
Sequence (Q06187 whole entry): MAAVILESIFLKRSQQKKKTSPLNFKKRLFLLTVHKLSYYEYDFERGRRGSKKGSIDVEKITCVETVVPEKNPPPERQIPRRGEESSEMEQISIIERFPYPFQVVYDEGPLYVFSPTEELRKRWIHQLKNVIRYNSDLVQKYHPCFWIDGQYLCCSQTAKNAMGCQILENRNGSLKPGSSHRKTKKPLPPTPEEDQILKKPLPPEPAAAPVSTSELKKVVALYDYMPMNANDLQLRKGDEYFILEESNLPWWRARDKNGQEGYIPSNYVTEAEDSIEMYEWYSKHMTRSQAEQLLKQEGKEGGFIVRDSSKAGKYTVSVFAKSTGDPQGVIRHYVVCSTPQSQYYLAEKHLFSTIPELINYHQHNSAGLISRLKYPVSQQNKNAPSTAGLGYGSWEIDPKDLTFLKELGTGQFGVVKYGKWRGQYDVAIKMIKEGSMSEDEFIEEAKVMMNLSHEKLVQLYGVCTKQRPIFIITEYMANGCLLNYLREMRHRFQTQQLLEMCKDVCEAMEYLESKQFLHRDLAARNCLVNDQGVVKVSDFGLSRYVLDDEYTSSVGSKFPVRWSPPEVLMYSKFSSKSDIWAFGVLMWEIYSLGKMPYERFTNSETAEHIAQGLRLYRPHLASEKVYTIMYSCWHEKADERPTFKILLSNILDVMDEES
Output spec: scalar in %, unitless text.

Some solved cases for reference:
MOLECULAR_STRING | inhibition at 0.5 µM [%]
C=CC(=O)NCc1ccc(Sc2ccnc(Nc3ccc(N4CCOCC4)cc3)n2)cc1 | 100
C=CC(=O)Nc1ccc(Sc2ccnc(Nc3ccc(N4CCOCC4)cc3)n2)cc1OC | 100
C=CC(=O)Nc1cccc(Nc2nccc(Sc3ccc(OC)cc3)n2)c1 | 100

For reference, reported inhibition at 0.5 µM for C=CC(=O)NCc1cccc(Sc2ccnc(Nc3ccc(N4CCOCC4)cc3)n2)c1 stands at 100

For reference, reported inhibition at 0.5 µM for C=CC(=O)Nc1ccc(Sc2ccnc(Nc3cc(OC)c(OC)c(OC)c3)n2)cc1 stands at 27
